Task for the reader: assign each of the following molecules its reported IC50.
biological target: recombinant full-length PDE2A protein (Homo sapiens); construct: Expression of recombinant full-length PDE2A protein in insect Sf9 cells; GST (N); assay: Evaluation of PDE2 phosphodiesterase inhibitory activity in vitro (fluorescence polarization, Transcreener AMP2/GMP2); conditions: IC50 classes; substrate 1 μM cGMP; room temperature one hour
Sequence (O00408 whole entry, species assumed): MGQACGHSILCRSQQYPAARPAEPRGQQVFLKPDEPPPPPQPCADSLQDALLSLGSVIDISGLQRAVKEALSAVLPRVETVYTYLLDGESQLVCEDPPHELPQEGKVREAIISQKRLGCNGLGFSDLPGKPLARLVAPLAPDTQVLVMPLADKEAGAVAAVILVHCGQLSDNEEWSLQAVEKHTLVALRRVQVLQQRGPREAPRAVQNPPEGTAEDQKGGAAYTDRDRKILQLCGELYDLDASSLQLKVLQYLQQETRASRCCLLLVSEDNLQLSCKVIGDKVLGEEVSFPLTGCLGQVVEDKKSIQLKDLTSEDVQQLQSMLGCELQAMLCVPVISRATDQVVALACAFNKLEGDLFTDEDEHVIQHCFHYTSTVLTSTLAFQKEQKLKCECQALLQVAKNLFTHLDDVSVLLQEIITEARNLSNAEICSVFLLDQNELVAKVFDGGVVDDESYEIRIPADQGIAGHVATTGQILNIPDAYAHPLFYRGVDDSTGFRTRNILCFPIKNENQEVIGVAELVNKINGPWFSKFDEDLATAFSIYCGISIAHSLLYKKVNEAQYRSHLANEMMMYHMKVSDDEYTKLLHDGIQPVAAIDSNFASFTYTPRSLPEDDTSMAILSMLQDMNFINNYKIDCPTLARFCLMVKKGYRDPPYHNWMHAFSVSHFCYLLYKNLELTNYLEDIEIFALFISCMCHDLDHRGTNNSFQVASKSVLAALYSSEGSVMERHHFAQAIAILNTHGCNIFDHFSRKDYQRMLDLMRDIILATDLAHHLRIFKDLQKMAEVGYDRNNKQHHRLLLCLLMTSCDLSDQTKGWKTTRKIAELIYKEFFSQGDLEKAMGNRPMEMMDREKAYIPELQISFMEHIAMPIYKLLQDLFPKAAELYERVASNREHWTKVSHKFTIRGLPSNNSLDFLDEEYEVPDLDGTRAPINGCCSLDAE

molecule: Cn1c(=O)n(Cc2ccc(C(C)(O)C(F)(F)F)nc2)c(=O)c2c1ncn2CC1CC1 (stereo not shown)
result: < 1 µM
//
molecule: Cn1c(=O)n(CC2(C)CCC(O)(C(F)(F)F)CC2)c(=O)c2c1ncn2CC1CC1 (stereo not shown)
result: 10 to 50 µM
//
molecule: Cn1cnc2c1c(=O)n(Cc1ccc(C(C)(O)C(F)(F)F)cc1)c(=O)n2C (stereo not shown)
result: 1 to 10 µM

Please state IC50 for every molecule in the list that follows.
1. Cn1c(=O)n(CC2CCC(O)(C(F)(F)F)CC2)c(=O)c2c1ncn2CC(F)(F)F (single isomer, unassigned) [Embodiment 45 isomer 2]
2. Cn1c(=O)n(CC2CCC(C)(O)CC2)c(=O)c2c1ncn2CC1CC1 (single isomer, unassigned) [Embodiment 51 isomer 2]
3. Cn1cnc2c1c(=O)n(Cc1csc(C(C)(O)C(F)(F)F)n1)c(=O)n2C (stereo not shown)
4. Cn1c(=O)n(CC2CCC(C)(O)CC2)c(=O)c2c1ncn2CC(F)(F)F (single isomer, unassigned) [Embodiment 46 isomer 2]

1. 1 to 10 µM
2. 1 to 10 µM
3. 10 to 50 µM
4. 10 to 50 µM
